Known pIC50 of a selection of compounds
# Test system: TGBC1TKB;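 further: growth inhibition of TGBC1TKB cells, read out by a cell viability assay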
# experiment_notes: cells
# Assay type: functional, cell-based
# condition: Homo sapiens
# Description: SANGER: Inhibition of human TGBC1TKB cell growth in a cell viability assay.
pIC50: −log10 of the molar value.

# compound, comparison_symbol, pIC50
data = [
    ("CC(=O)c1c(C)c2cnc(Nc3ccc(N4CCNCC4)cn3)nc2n(C2CCCC2)c1=O", "<", 5.40),
    ("Fc1cc(-c2cc[nH]/c(=N/c3ccc(-n4cnc(N5CCOCC5)n4)cc3)n2)cc(N2CCOCC2)c1", "=", 5.73),
    ("C[C@]1(c2nc3c(C(N)=O)cccc3[nH]2)CCCN1", "<", 5.30),
    ("O=c1cc(N2CCOCC2)oc2c(-c3cccc4c3sc3ccccc34)cccc12", "<", 5.70),
    ("Cc1nc(Nc2ncc(C(=O)Nc3c(C)cccc3Cl)s2)cc(N2CCN(CCO)CC2)n1", "=", 7.21),
    ("CCn1c(-c2nonc2N)nc2cnc(Oc3cccc(NC(=O)c4ccc(OCCN5CCOCC5)cc4)c3)cc21 [GSK-269962A]", "<", 5.60),
    ("C[C@]12O[C@H](C[C@]1(O)CO)n1c3ccccc3c3c4c(c5c6ccccc6n2c5c31)CNC4=O", "<", 5.70),
    ("C/C=C(/C)C(=O)O[C@H]1C(C)=C2[C@H]([C@@H]1OC(=O)CCCCCCC)[C@@](C)(OC(C)=O)C[C@H](OC(=O)CCC)[C@@]1(O)[C@H]2OC(=O)[C@@]1(C)O", "=", 9.29),
    ("CC[C@]1(O)C[C@@H]2CN(CCc3c([nH]c4ccccc34)[C@@](C(=O)OC)(c3cc4c(cc3OC)N(C)[C@H]3[C@@](O)(C(=O)OC)[C@H](OC(C)=O)[C@]5(CC)C=CCN6CC[C@]43[C@@H]65)C2)C1", "=", 7.51),
]

###

# Tested on: EC-GI-10
# experiment_notes: cells
# Type: functional, cell-based
# condition: Homo sapiens
# Description: SANGER: Inhibition of human EC-GI-10 cell growth in a cell viability assay.
Known IC50 of a selection of molecules

# molecule, IC50
rows = [
    ("O=c1[nH]c2ccccc2n1C1CCN(Cc2ccc(-c3nc4cc5[nH]cnc5cc4nc3-c3ccccc3)cc2)CC1", "> 2560 nM"),
    ("CCNc1cc(N[C@H]2CC[C@@H](O)CC2)nc(Nc2ccc3c(ccn3Cc3ccccc3)c2)n1", "> 5120 nM"),
    ("CC(O)(CS(=O)(=O)c1ccc(F)cc1)C(=O)Nc1ccc(C#N)c(C(F)(F)F)c1 (stereo not drawn) [BICALUTAMIDE]", "> 1020 nM"),
]

###

# Test system: MEL-HO
# experiment_notes: cells
# Format: functional, cell-based
# condition: Homo sapiens
# Description: SANGER: Inhibition of human MEL-HO cell growth in a cell viability assay.

# structure, assayed_system, IC50
rows = [
    ("CC(=O)c1c(C)c2cnc(Nc3ccc(N4CCNCC4)cn3)nc2n(C2CCCC2)c1=O", "MEL-HO", "> 4000 nM"),
    ("O=c1[nH]c2ccccc2n1C1CCN(Cc2ccc(-c3nc4cc5[nH]cnc5cc4nc3-c3ccccc3)cc2)CC1", "MEL-HO", "> 2560 nM"),
    ("Cn1cc(/C=C2\\C(=O)Nc3cccnc32)c2ccccc21", "MEL-HO", "> 2000 nM"),
]

###

# Test system: BB30-HNC
# experiment_notes: cells
# Assay type: functional, cell-based
# condition: Homo sapiens
# Description: SANGER: Inhibition of human BB30-HNC cell growth in a cell viability assay.
Known IC50 of a selection of compounds

# compound, assayed_system, IC50
measured = [
    ("CCCS(=O)(=O)Nc1ccc(F)c(C(=O)c2c[nH]c3ncc(Cl)cc23)c1F [PLX-4720]", "BB30-HNC", "> 10000 nM"),
    ("CCn1c(-c2nonc2N)nc2cnc(Oc3cccc(NC(=O)c4ccc(OCCN5CCOCC5)cc4)c3)cc21 [GSK-269962A]", "BB30-HNC", "> 2500 nM"),
    ("CC(O)(CS(=O)(=O)c1ccc(F)cc1)C(=O)Nc1ccc(C#N)c(C(F)(F)F)c1 (stereo not given) [BICALUTAMIDE]", "BB30-HNC", "> 1020 nM"),
    ("C/C(O)=C(\\C#N)C(=O)Nc1cc(Br)ccc1Br", "BB30-HNC", "> 16000 nM"),
    ("O=c1[nH]c2ccccc2n1C1CCN(Cc2ccc(-c3nc4cc5[nH]cnc5cc4nc3-c3ccccc3)cc2)CC1", "BB30-HNC", "> 2560 nM"),
]

###

# System: TCC-SUP;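 further: growth inhibition of TCC-SUP cells, read out with a cell viability assay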
# experiment_notes: cells
# Format: functional, cell-based
# condition: Homo sapiens
# Description: SANGER: Inhibition of human TCCSUP cell growth in a cell viability assay.
pIC50: −log10 of the molar value.
Known pIC50 of a selection of compounds

# compound, pIC50
rows = [
    ("CC(O)(CS(=O)(=O)c1ccc(F)cc1)C(=O)Nc1ccc(C#N)c(C(F)(F)F)c1 (stereo not drawn) [BICALUTAMIDE]", "< 5.99"),
    ("COc1cc(Nc2c(C#N)cnc3cc(OCCCN4CCN(C)CC4)c(OC)cc23)c(Cl)cc1Cl [BOSUTINIB]", "< 5.70"),
    ("O=c1cc(N2CCOCC2)oc2c(-c3cccc4c3sc3ccccc34)cccc12", "< 5.70"),
]

###

# Tested on: T84;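 further: growth inhibition measured with a cell viability readout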
# experiment_notes: cells
# Type: functional, cell-based
# condition: Homo sapiens
# Description: SANGER: Inhibition of human T84 cell growth in a cell viability assay.
pIC50: −log10 of the molar value.
Known pIC50 of a selection of molecules

# structure, pIC50
records = [
    ("CO[C@@]12[C@H](COC(N)=O)C3=C(C(=O)C(C)=C(N)C3=O)N1C[C@@H]1N[C@@H]12", 6.76),
    ("CC(=O)c1c(C)c2cnc(Nc3ccc(N4CCNCC4)cn3)nc2n(C2CCCC2)c1=O", "< 5.40"),
    ("C/C(O)=C(\\C#N)C(=O)Nc1cc(Br)ccc1Br", "< 4.80"),
    ("CCCS(=O)(=O)Nc1ccc(F)c(C(=O)c2c[nH]c3ncc(Cl)cc23)c1F", "< 5.00"),
]

###

# Tested on: HEL
# experiment_notes: cells
# Assay type: functional, cell-based
# condition: Homo sapiens
# Description: SANGER: Inhibition of human HEL cell growth in a cell viability assay.
Known IC50 of a selection of compounds
measured_quantity: IC50

# structure, assayed_system, measured_value
rows = [
    ("Cc1[nH]c(/C=C2\\C(=O)Nc3ccc(S(=O)(=O)Cc4c(Cl)cccc4Cl)cc32)c(C)c1C(=O)N1CCC[C@@H]1CN1CCCC1", "HEL", "> 2000 nM"),
    ("O=c1[nH]c2ccccc2n1C1CCN(Cc2ccc(-c3nc4cc5[nH]cnc5cc4nc3-c3ccccc3)cc2)CC1", "HEL", "> 2560 nM"),
    ("C[C@]1(c2nc3c(C(N)=O)cccc3[nH]2)CCCN1", "HEL", "> 5000 nM"),
    ("O=c1cc(N2CCOCC2)oc2c(-c3cccc4c3sc3ccccc34)cccc12", "HEL", "> 2000 nM"),
    ("COc1cc(Nc2c(C#N)cnc3cc(OCCCN4CCN(C)CC4)c(OC)cc23)c(Cl)cc1Cl", "HEL", "> 2000 nM"),
]

###

# Test system: D-263MG
# experiment_notes: cells
# Assay type: functional, cell-based
# condition: Homo sapiens
# Description: SANGER: Inhibition of human D-263MG cell growth in a cell viability assay.
pIC50: −log10 of the molar value.
Known pIC50 of a selection of compounds

# structure, pIC50
measured = [
    ("CCCS(=O)(=O)Nc1ccc(F)c(C(=O)c2c[nH]c3ncc(Cl)cc23)c1F", "< 5.00"),
    ("O=c1cc(N2CCOCC2)oc2c(-c3cccc4c3sc3ccccc34)cccc12", "< 5.70"),
    ("Cn1cc(/C=C2\\C(=O)Nc3cccnc32)c2ccccc21", "< 5.70"),
    ("C/C(O)=C(\\C#N)C(=O)Nc1cc(Br)ccc1Br", "< 4.80"),
    ("Cc1[nH]c(/C=C2\\C(=O)Nc3ccc(S(=O)(=O)Cc4c(Cl)cccc4Cl)cc32)c(C)c1C(=O)N1CCC[C@@H]1CN1CCCC1", "< 5.70"),
    ("NC(=O)c1ncn([C@@H]2O[C@H](COP(=O)(O)O)[C@@H](O)[C@H]2O)c1N", "< 2.70"),
]

###

Known IC50 of a selection of compounds
# Test system: SW48
# experiment_notes: cells
# Assay type: functional, cell-based
# condition: Homo sapiens
# Description: SANGER: Inhibition of human SW48 cell growth in a cell viability assay.
measured_quantity: IC50

# compound, assayed_system, measured_value
records = [
    ("C[C@]1(c2nc3c(C(N)=O)cccc3[nH]2)CCCN1", "SW48", "> 5 µM"),
    ("CC(O)(CS(=O)(=O)c1ccc(F)cc1)C(=O)Nc1ccc(C#N)c(C(F)(F)F)c1 (stereo not drawn) [BICALUTAMIDE]", "SW48", "> 1.02 µM"),
    ("Cn1cc(/C=C2\\C(=O)Nc3cccnc32)c2ccccc21", "SW48", "> 2 µM"),
]

###

# Tested on: KURAMOCHI
# experiment_notes: cells
# Assay type: functional, cell-based
# condition: Homo sapiens
# Description: SANGER: Inhibition of human KURAMOCHI cell growth in a cell viability assay.
Known IC50 of a selection of molecules

# molecule, IC50
rows = [
    ("COc1cc(C)c(Sc2cnc(NC(=O)c3ccc(CNC(C)C(C)(C)C)cc3)s2)cc1C(=O)N1CCN(C(C)=O)CC1 (stereo not given)", "> 10.2 µM"),
    ("CCn1c(-c2nonc2N)nc2cnc(Oc3cccc(NC(=O)c4ccc(OCCN5CCOCC5)cc4)c3)cc21 [GSK-269962A]", "> 2.5 µM"),
    ("Cn1cc(/C=C2\\C(=O)Nc3cccnc32)c2ccccc21", "> 2 µM"),
    ("O=c1[nH]c2ccccc2n1C1CCN(Cc2ccc(-c3nc4cc5[nH]cnc5cc4nc3-c3ccccc3)cc2)CC1", "2.31 µM"),
    ("CC[C@]1(O)C[C@@H]2CN(CCc3c([nH]c4ccccc34)[C@@](C(=O)OC)(c3cc4c(cc3OC)N(C)[C@H]3[C@@](O)(C(=O)OC)[C@H](OC(C)=O)[C@]5(CC)C=CCN6CC[C@]43[C@@H]65)C2)C1", "> 0.1 µM"),
]
